Numbers sourced from patent US9441012B2.

System: A549/ATCC
PROTOCOL SUMMARY: NCI 60 human tumor cell line screen (SRB)
Type: cell-based
STATED CONDITIONS: A549/ATCC (Non-Small Cell Lung Cancer); 48 h
TEST READOUT: Log10TGI50
Answer with a bare number; do not write a unit.

Prompt: Using known records, supply Log10TGI50 for C[C@]1(C(=O)[C@H](Cc2ccccc2)NC(=O)[C@H](COC(F)F)NC(=O)[C@H](COC(F)F)NC(=O)CN2CCOCC2)CO1
Completion: −6.13

Prompt: Using known records, supply Log10TGI50 for CC(C)C[C@H](NC(=O)[C@H](Cc1ccccc1)NC(=O)[C@H](COC(F)F)NC(=O)CN1CCOCC1)C(=O)[C@@]1(C)CO1
Completion: −6.13

* * *

Test system: SF-295
PROTOCOL SUMMARY: NCI 60 human tumor cell line screen (SRB)
Format: cell-based
STATED CONDITIONS: SF-295 (CNS Cancer); 48 h
I'd appreciate it if you could supply Log10TGI50 values for the items below.
Answer with a bare number; do not write a unit.

Prompt: Using known records, supply Log10TGI50 for CC(C)C[C@H](NC(=O)[C@H](Cc1ccccc1)NC(=O)[C@H](COC(F)F)NC(=O)CN1CCOCC1)C(=O)[C@@]1(C)CO1
Completion: −7.26

Prompt: Using known records, supply Log10TGI50 for C[C@]1(C(=O)[C@H](Cc2ccccc2)NC(=O)[C@H](Cc2ccccc2)NC(=O)[C@H](COC(F)F)NC(=O)CN2CCOCC2)CO1
Completion: −6.55

Prompt: Using known records, supply Log10TGI50 for C[C@]1(C(=O)[C@H](Cc2ccccc2)NC(=O)[C@H](COC(F)F)NC(=O)[C@H](COC(F)F)NC(=O)CN2CCOCC2)CO1
Completion: −7.26

Prompt: Using known records, supply Log10TGI50 for Cc1ncc(C(=O)N[C@@H](COC(F)F)C(=O)N[C@@H](COC(F)F)C(=O)N[C@@H](Cc2ccccc2)C(=O)[C@@]2(C)CO2)s1
Completion: −6.24

* * *

I'd appreciate it if you could supply Log10LC50 values for the items below.
Tested on: HT29
PROTOCOL SUMMARY: NCI 60 human tumor cell line screen (SRB)
Type: cell-based
STATED CONDITIONS: HT29 (Colon Cancer); 48 h

Prompt: Using known records, supply Log10LC50 for Cc1ncc(C(=O)N[C@@H](COC(F)F)C(=O)N[C@@H](COC(F)F)C(=O)N[C@@H](Cc2ccccc2)C(=O)[C@@]2(C)CO2)s1
Completion: −4.32

Prompt: Using known records, supply Log10LC50 for C[C@]1(C(=O)[C@H](Cc2ccccc2)NC(=O)[C@H](Cc2ccccc2)NC(=O)[C@H](COC(F)F)NC(=O)CN2CCOCC2)CO1
Completion: >−4.00

Prompt: Using known records, supply Log10LC50 for CC(C)C[C@H](NC(=O)[C@H](Cc1ccccc1)NC(=O)[C@H](COC(F)F)NC(=O)CN1CCOCC1)C(=O)[C@@]1(C)CO1
Completion: >−4.00

Prompt: Using known records, supply Log10LC50 for C[C@]1(C(=O)[C@H](Cc2ccccc2)NC(=O)[C@H](COC(F)F)NC(=O)[C@H](COC(F)F)NC(=O)CN2CCOCC2)CO1
Completion: >−4.00
